settings: 313.15 K; 100 kPa
The reader will find reported viscosity values listed item by item below.
# value in mPa·s; strip the unit string

Examples from the recorded data:
CC(=O)CC(C)C :: 0.47
CCC12CC3CC(CC(C3)C1)C2 :: 3.887
CC(C)CC(C)(C)C :: 0.431
CCCCCCCCCCCCCC[P+](CCCCCC)(CCCCCC)CCCCCC.c1nnc[n-]1 :: 354
CC(C)CC(=O)CC(C)C :: 0.76

Okay, now this molecule:
Input: Item O=C1CCCCC1 has what recorded viscosity?
Output: 1.481

====

conditions: 298.15 K; 100 kPa
REPORTED ENDPOINT: log10 viscosity (log10 of the value in mPa·s)
Heads up: the numbers are on a log10 scale; they represent viscosity in mPa·s.

CCCCCCCCCCCCCC[P+](CCCCCC)(CCCCCC)CCCCCC.c1nnc[n-]1 :: 2.96
CCCCCCO :: 0.65
CC(C)CC(C)(C)C :: -0.31
CC(C)CC(=O)CC(C)C :: -0.04

Okay, now this molecule:
Input: Item CCC12CC3CC(CC(C3)C1)C2 has what recorded log10 viscosity?
Output: 0.75
